biological target: recombinant GSK3β kinase (Homo sapiens (Human)); test: GSK3β kinase assay (Ser/Thr 09 peptide Z-lyte FRET); conditions: 46 μM ATP, 1 h room temperature;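 also: kinase activity read as coumarin to fluorescein emission ratio, 11-point threefold dilutions from 10 µM to 0.0003 µM in duplicate, unphosphorylated and phosphorylated peptide as 0% and 100% controls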
Sequence (P49841 whole entry): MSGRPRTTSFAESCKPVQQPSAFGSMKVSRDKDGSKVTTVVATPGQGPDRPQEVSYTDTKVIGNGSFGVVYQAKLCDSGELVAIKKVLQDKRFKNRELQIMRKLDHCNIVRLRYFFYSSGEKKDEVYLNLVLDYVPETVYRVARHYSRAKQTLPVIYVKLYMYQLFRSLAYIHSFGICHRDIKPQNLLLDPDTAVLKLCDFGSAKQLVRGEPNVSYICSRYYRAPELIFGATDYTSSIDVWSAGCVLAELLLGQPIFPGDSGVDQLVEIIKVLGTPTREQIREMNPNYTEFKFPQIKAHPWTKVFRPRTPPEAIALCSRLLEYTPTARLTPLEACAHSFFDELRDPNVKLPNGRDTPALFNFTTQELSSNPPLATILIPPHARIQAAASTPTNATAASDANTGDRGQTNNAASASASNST
quantity: EC50 (nM)
Write down the numeric answer in nM and omit the unit.

What does the record list as EC50 for Cn1cc(-c2ccc3cnc(NC(=O)C4CCNCC4)cc3c2)cn1 [Compound 72] ?
64

What does the record list as EC50 for Cn1cc(-c2ccc3cnc(NC(=O)[C@@H]4CCCCN4)cc3c2)cn1 [Compound 340] ?
257

What does the record list as EC50 for CC(C)CN1CCC(C(=O)Nc2cc3cc(-c4cncn4C)ccc3cn2)CC1 [Compound 554] ?
38

What does the record list as EC50 for Cn1ncc(-c2ccc3cnc(NC(=O)C(C)(C)F)cc3c2)c1CN1CCCCC1 [Compound 784] ?
133

Next compound, please.
What does the record list as EC50 for Cn1cc(-c2ccc3cnc(NC(=O)CN4C5CCC4CC5)cc3c2)cn1 [Compound 292] ?
173
